Measured pIC50 values are reported for all entries that follow.
# TARGET_ENTITY: CDK2 (Human) (UniProt P24941)
# ASSAY_DETAILS: Enzyme Assay
pIC50: −log10 of the molar value.

| SMILES_TEXT | INEQUALITY_OPERATOR | pIC50 |
| --- | --- | --- |
| CC(=O)O/N=C1/C(=C2/C(=O)Nc3cc(Br)ccc32)Nc2ccccc21 | = | 4.11 |
| CCN(CC)C(=O)c1ccc(Nc2nc(OCC3CCCCC3)c3[nH]cnc3n2)cc1 | = | 5.19 |
| O=C1Nc2ccc(I)cc2/C1=C1/Nc2ccccc2/C1=N\O | = | 5.82 |
| CCCCCCCCCCCCCCCCn1cc[n+](Cc2ccccc2)c1C | = | 5.41 |
| CC(C)n1cnc2c(NCc3ccccc3O)nc(NCCCO)nc21 | = | 5.92 |
| Cc1ccc([N+](=O)[O-])cc1S(=O)(=O)N(C)/N=C/c1cnc2ccc(Br)cn12 | = | 6.77 |
| O=C1Nc2ccc3ncsc3c2/C1=C/c1cnc[nH]1 | = | 7.03 |
| N#CCCc1ccc2c(c1)-c1[nH]c3ccc([N+](=O)[O-])cc3c1CC(=O)N2 | = | 6.67 |
| CC(C)[C@H](CO)Nc1nc(Nc2cccc(Cl)c2)c2ncn(C(C)C)c2n1 | = | 6.30 |
| CC(C)c1[nH]n(-c2c(Cl)cccc2Cl)c2nc(Cc3ccc(OCCO)cc3)nc(=O)c1-2 | = | 7.17 |
| Cn1cc(C2=C(c3cn(CCCSC(=N)N)c4ccccc34)C(=O)NC2=O)c2ccccc21 | = | 6.83 |
| O=C1NC(=O)c2c1c1c3ccccc3n3c1c1c2c2ccccc2n1C1CCC3O1 | = | 6.55 |
| COc1cc(Nc2ncc3ccn(-c4cccc(CCC#N)c4)c3n2)cc(OC)c1OC | < | 4.60 |
